Assay: Solubility in phosphate buffer
Assay type: physicochemical
Conditions: aqueous buffer, kinetic from dmso stock; Example 12 chart; pH 7.4
Procedure: A stock solution for each test compound was prepared at 25 mM in DMSO. These were diluted into phosphate buffer and equilibrated for 16 hours at room temperature, and then filtered to remove precipitated compound. The UV absorbance of this equilibrated sample was compared to a single point reference standard.
ENDPOINT LABEL: solubility

{"COMPOUND": "CN(C/C=C\\CN)CC1OC(n2cnc3c(N)ncnc32)C(O)C1O (stereo not shown) [MDL-73811, reference compound]", "MEASURED RESULT": "> 47 µg/mL"}

###

Test: Solubility in phosphate buffer
Type: physicochemical
Conditions: Table 2; @ 7.4

{"COMPOUND": "CN(C/C=C\\CN)CC1OC(n2cnc3c(N)ncnc32)C(O)C1O (centres unmarked) [MDL-73811, reference compound]", "Sol.": ">47 (@ 7.4) ug/ml"}
{"COMPOUND": "CN(C/C=C\\CN)C[C@H]1O[C@@H](n2cnc3c(N)ncnc32)[C@H](F)[C@@H]1O (stereo in doubt) [Compound 1]", "Sol.": ">47 (@ 7.4) ug/ml"}
{"COMPOUND": "CN(C/C=C\\CN)C[C@H]1O[C@@H](n2cnc3c(N)nc(Cl)nc32)[C@H](O)[C@@H]1O [Compound 3]", "Sol.": ">51 (@ 7.4) ug/ml"}
{"COMPOUND": "CN(C/C=C\\CN)C[C@H]1O[C@@H](n2cnc3c(N)ncnc32)[C@@H](F)[C@@H]1O [Compound 2]", "Sol.": ">47 (@ 7.4) ug/ml"}
{"COMPOUND": "Cc1nc2c(N)ncnc2n1[C@@H]1O[C@H](CN(C)C/C=C\\CN)[C@@H](O)[C@H]1O (stereo in doubt) [Compound 4]", "Sol.": ">49 (@ 7.4) ug/ml"}

###

Experiment: physchem
ENDPOINT LABEL: logD

{"COMPOUND": "CN(C/C=C\\CN)CC1OC(n2cnc3c(N)ncnc32)C(O)C1O (stereo not shown) [MDL-73811, reference compound]", "ENDPOINT LABEL": "logD", "MEASURED RESULT": -1.8}

###

Listing of entries alongside the reported t/2 in mouse.
Assay: Mouse PK study
Type: in vivo
Conditions: Table 3

{"COMPOUND": "CN(C/C=C\\CN)CC1OC(n2cnc3c(N)ncnc32)C(O)C1O (stereo not shown) [MDL-73811, reference compound]", "UNIT LABEL": "h", "t/2 in mouse": 2.48}
{"COMPOUND": "Cc1nc2c(N)ncnc2n1[C@@H]1O[C@H](CN(C)C/C=C\\CN)[C@@H](O)[C@H]1O (stereo in doubt)", "UNIT LABEL": "h", "t/2 in mouse": 7.43}
{"COMPOUND": "CN(C/C=C\\CN)C[C@H]1O[C@@H](n2cnc3c(N)nc(Cl)nc32)[C@H](O)[C@@H]1O", "UNIT LABEL": "h", "t/2 in mouse": 1.66}
{"COMPOUND": "CN(C/C=C\\CN)C[C@H]1O[C@@H](n2cnc3c(N)ncnc32)[C@H](F)[C@@H]1O (stereo in doubt)", "UNIT LABEL": "h", "t/2 in mouse": 1.93}

###

Experiment: Mouse brain exposure
Format: in vivo
Conditions: in vivo; Table 3; mouse; read-out: Mouse Brain exposure compared with blood AUC (%)
ENDPOINT LABEL: Kp

{"COMPOUND": "CN(C/C=C\\CN)CC1OC(n2cnc3c(N)ncnc32)C(O)C1O (stereo not shown) [MDL-73811, reference compound]", "MEASURED RESULT": 0.0134}

###

Test: Plasma protein binding (RED), mouse
Format: in vitro ADME
Conditions: plasma, pH 7.4; Example 12 chart; mouse
Listing of entries alongside the reported fraction unbound at 4 hr.

{"COMPOUND": "CN(C/C=C\\CN)C[C@H]1O[C@@H](n2cnc3c(N)nc(Cl)nc32)[C@H](O)[C@@H]1O", "fraction unbound at 4 hr": 0.578}
{"COMPOUND": "CN(C/C=C\\CN)C[C@H]1O[C@@H](n2cnc3c(N)ncnc32)[C@@H](F)[C@@H]1O", "fraction unbound at 4 hr": 0.628}
{"COMPOUND": "CN(C/C=C\\CN)C[C@H]1O[C@@H](n2cnc3c(N)ncnc32)[C@H](F)[C@@H]1O (stereo in doubt)", "fraction unbound at 4 hr": 0.523}

###

Tested on: T. cruzi
Assay: Cell-based screening against T. cruzi
Conditions: Trypanosoma cruzi; Screening Data
pIC50: −log10 of the molar value.

{"COMPOUND": "CN(C/C=C\\CN)C[C@H]1O[C@@H](n2cnc3c(N)ncnc32)[C@@H](F)[C@@H]1O", "pIC50": "< 4.07"}
{"COMPOUND": "CN(C/C=C\\CN)C[C@H]1O[C@@H](n2cnc3c(N)nc(Cl)nc32)[C@H](O)[C@@H]1O", "pIC50": "< 4.07"}
{"COMPOUND": "Cc1nc2c(N)ncnc2n1[C@@H]1O[C@H](CN(C)C/C=C\\CN)[C@@H](O)[C@H]1O (stereo in doubt)", "pIC50": "< 4.07"}
{"COMPOUND": "CN(C/C=C\\CN)C[C@H]1O[C@@H](n2cnc3c(N)ncnc32)[C@H](F)[C@@H]1O (stereo in doubt)", "pIC50": "< 4.07"}
{"COMPOUND": "CN(C/C=C\\CN)CC1OC(n2cnc3c(N)ncnc32)C(O)C1O (centres unmarked) [MDL-73811, reference compound]", "pIC50": 4.71}

###

Listing of entries alongside the reported solubility at 16 hours.
Assay: Solubility in phosphate buffer
Assay type: physicochemical
Details: phosphate buffer, aqueous buffer, kinetic from dmso stock; Example 12 chart; pH 7.4
ENDPOINT LABEL: solubility at 16 hours

{"CHEMICAL STRING": "CN(C/C=C\\CN)C[C@H]1O[C@@H](n2cnc3c(N)ncnc32)[C@@H](F)[C@@H]1O", "MEASURED RESULT": "> 0.047 mg/mL"}
{"CHEMICAL STRING": "CCc1nc2c(N)ncnc2n1[C@@H]1O[C@H](CN(C)C/C=C\\CN)[C@@H](O)[C@H]1O", "MEASURED RESULT": "> 0.051 mg/mL"}
{"CHEMICAL STRING": "CN(C/C=C\\CN)C[C@H]1O[C@@H](n2cnc3c(N)nc(Cl)nc32)[C@H](O)[C@@H]1O", "MEASURED RESULT": "> 0.051 mg/mL"}

###

Assay: Plasma protein binding (RED), human
Type: in vitro ADME
Settings: pH 7.4; Table 2; human plasma
Protocol: Rapid Equilibrium Dialysis device (RED) is a 96-well formatted dialysis with disposable inserts and Teflon base design providing short incubation time. The membrane in RED physically separates of bound and free drug. After 4 hr incubation at 37° C., drug concentrations at both plasma (e.g., human, rat, dog, monkey, mouse) and pH 7.4 PBS buffer sides was quantitated by LC/MS/MS and % bound drug in plasma was calculated.
ENDPOINT LABEL: fraction unbound

{"COMPOUND": "CN(C/C=C\\CN)CC1OC(n2cnc3c(N)ncnc32)C(O)C1O (stereo not shown) [MDL-73811, reference compound]", "MEASURED RESULT": 0.271}

###

Molecular target: T. brucei SAM DC (Trypanosoma brucei brucei)
Construct: made in house
Sequence (P50244 86-370 limits assumed): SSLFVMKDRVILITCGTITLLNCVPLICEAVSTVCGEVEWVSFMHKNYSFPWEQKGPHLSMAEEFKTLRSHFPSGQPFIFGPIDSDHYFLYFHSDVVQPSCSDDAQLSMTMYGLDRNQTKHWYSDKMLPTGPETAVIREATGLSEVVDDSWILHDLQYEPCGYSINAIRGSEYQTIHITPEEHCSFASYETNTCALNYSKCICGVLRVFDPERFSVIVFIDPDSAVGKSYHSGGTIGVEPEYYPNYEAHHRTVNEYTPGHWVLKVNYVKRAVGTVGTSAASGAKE
Assay: SAMDC enzyme inhibition assay (14CO2 release from 14C-AdoMet)
Type: biochemical
Conditions: Table 1; read-out: kinact/Ki^app against SAM DC enzyme by SW (converted)
ENDPOINT LABEL: kinact/KI

{"MOLECULE": "Cc1nc2c(N)ncnc2n1[C@@H]1O[C@H](CN(C)C/C=C\\CN)[C@@H](O)[C@H]1O (stereo in doubt)", "ENDPOINT LABEL": "kinact/KI", "MEASURED RESULT": "130000 M⁻¹ s⁻¹"}
{"MOLECULE": "CN(C/C=C\\CN)C[C@H]1O[C@@H](n2cnc3c(N)nc(Cl)nc32)[C@H](O)[C@@H]1O", "ENDPOINT LABEL": "kinact/KI", "MEASURED RESULT": "300 M⁻¹ s⁻¹"}
{"MOLECULE": "CN(C/C=C\\CN)CC1OC(n2cnc3c(N)ncnc32)C(O)C1O (centres unmarked) [MDL-73811, reference compound]", "ENDPOINT LABEL": "kinact/KI", "MEASURED RESULT": "24900 M⁻¹ s⁻¹"}
{"MOLECULE": "CN(C/C=C\\CN)C[C@H]1O[C@@H](n2cnc3c(N)ncnc32)[C@@H](F)[C@@H]1O", "ENDPOINT LABEL": "kinact/KI", "MEASURED RESULT": "32700 M⁻¹ s⁻¹"}
{"MOLECULE": "CN(C/C=C\\CN)C[C@H]1O[C@@H](n2cnc3c(N)ncnc32)[C@H](F)[C@@H]1O (stereo in doubt)", "ENDPOINT LABEL": "kinact/KI", "MEASURED RESULT": "3200 M⁻¹ s⁻¹"}
